Data origin: patent US6355799B1

Tested on: barnyardgrass (Echinochloa crus-galli, ECHCG)
Assay Remarks: Pre-emerge test, greenhouse herbicide activity screening
Type: in vivo
Condition: pre-emerge, rate 250 g ai/ha, phytotoxicity rating 0-100 at 14 days after application
Here the recorded Pre-emerge Herbicidal Activity ECHCG is given for each entry.
Please state the value as a number alone, without comment.

Some molecules with recorded Pre-emerge Herbicidal Activity ECHCG:
COc1c(Cl)cc(F)c(N2C(=O)C3=C(CCCC3)C2=O)c1N    70
C=Cc1ccc(C(=O)Nc2c(OC)c(Cl)cc(F)c2N2C(=O)C3=C(CCCC3)C2=O)cc1    20
COc1c(Cl)cc(F)c(-n2nnn(CCCF)c2=O)c1NC(=O)c1ccc2ccccc2c1    30

q: I am curious: what Pre-emerge Herbicidal Activity ECHCG value has been reported for Cc1c(Cl)cc(F)c(-n2c(=O)cc(C(F)(F)F)n(C)c2=O)c1NC(=O)SCc1ccccc1 ?
a: 90

q: Consider the molecule Cc1c(Cl)cc(F)c(-n2c(=O)cc(C(F)(F)F)n(C)c2=O)c1NC(=O)OCc1ccc(Cl)cc1Cl and give its measured Pre-emerge Herbicidal Activity ECHCG.
a: 60

* * *

Reported Pre-emerge Herbicidal Activity CORN values for the following compounds.
Tested on: field corn (Zea mays L., var. Dekalb 535, CORN)
Assay Remarks: Pre-emerge test, crop safety
Type: in vivo
Condition: 63 g ai/ha; crop damage rating 0-100, 14 days after application
The reply should be a number, written without any unit.

A selection of reference data follows.
COc1c(Cl)cc(F)c(-n2c(=O)cc(C(F)(F)F)n(C)c2=O)c1NC(=O)OCc1c(F)c(F)c(F)c(F)c1F    30
Cn1c(C(F)(F)F)cc(=O)n(-c2ccc(OC(F)(F)F)cc2NC(=O)c2ccc3ccccc3c2)c1=O    0
COc1c(Cl)cc(F)c(-n2c(=O)cc(C(F)(F)F)n(C)c2=O)c1NC(=O)OCc1ccc(C)c(C)c1    0
Cn1c(C(F)(F)F)cc(=O)n(-c2ccc(C(N)=S)cc2NC(=O)c2ccc3ccccc3c2)c1=O    0
COc1c(Cl)cc(F)c(-n2c(=O)cc(C(F)(F)F)n(C)c2=O)c1NC(=O)OCc1cc(F)ccc1F    70
Cc1c(Cl)cc(F)c(-n2c(=O)cc(C(F)(F)F)n(C)c2=O)c1NC(=O)OCc1ccccc1Cl    0
COc1c(Cl)cc(F)c(-n2c(=O)cc(C(F)(F)F)n(C)c2=O)c1NC(=O)OCc1ccc2c(c1)OCO2    15
CC(C)Oc1c(Cl)cc(F)c(-n2c(=O)cc(C(F)(F)F)n(C)c2=O)c1NC(=O)c1ccc2ccccc2c1    0

q: Entry COc1c(Cl)cc(F)c(-n2c(=O)cc(C(F)(F)F)n(C)c2=O)c1NC(=O)OCc1ccc2ccccc2c1 : reported Pre-emerge Herbicidal Activity CORN = ?
a: 0

q: Any idea what its Pre-emerge Herbicidal Activity CORN is? The compound is COc1c(Cl)cc(F)c(-n2c(=O)cc(C(F)(F)F)n(C)c2=O)c1NC(=O)OCc1cc(C)ccc1C
a: 10

q: Recorded Pre-emerge Herbicidal Activity CORN of CCOC(=O)C(C)Oc1c(Cl)cc(F)c(-n2c(=O)cc(C(F)(F)F)n(C)c2=O)c1NC(=O)c1ccc2ccccc2c1 (stereo not shown) , please.
a: 0

q: Which Pre-emerge Herbicidal Activity CORN value belongs to CCc1ccc(COC(=O)Nc2c(OC)c(Cl)cc(F)c2-n2c(=O)cc(C(F)(F)F)n(C)c2=O)cc1 ?
a: 0

q: State the recorded Pre-emerge Herbicidal Activity CORN for this entry: COc1c(Cl)cc(F)c(-n2c(=O)cc(C(F)(F)F)n(C)c2=O)c1NC(=O)OCc1ccc(F)cc1
a: 60

q: Returns the measured Pre-emerge Herbicidal Activity CORN for the input compound. Input: Cn1c(C(F)(F)F)cc(=O)n(-c2ccc(Cl)cc2NC(=O)C2CC2)c1=O
a: 50

q: Entry Cn1c(C(F)(F)F)cc(=O)n(-c2ccc(Cl)cc2NC(=O)Oc2ccccc2)c1=O has what Pre-emerge Herbicidal Activity CORN?
a: 0
